tested-on: PI3 Kinase (p110δ/p85α) (h) (Homo sapiens, UniProt O00329)
Construct: endogenous in cells; host or cells: Raji
Sequence (O00329 whole entry): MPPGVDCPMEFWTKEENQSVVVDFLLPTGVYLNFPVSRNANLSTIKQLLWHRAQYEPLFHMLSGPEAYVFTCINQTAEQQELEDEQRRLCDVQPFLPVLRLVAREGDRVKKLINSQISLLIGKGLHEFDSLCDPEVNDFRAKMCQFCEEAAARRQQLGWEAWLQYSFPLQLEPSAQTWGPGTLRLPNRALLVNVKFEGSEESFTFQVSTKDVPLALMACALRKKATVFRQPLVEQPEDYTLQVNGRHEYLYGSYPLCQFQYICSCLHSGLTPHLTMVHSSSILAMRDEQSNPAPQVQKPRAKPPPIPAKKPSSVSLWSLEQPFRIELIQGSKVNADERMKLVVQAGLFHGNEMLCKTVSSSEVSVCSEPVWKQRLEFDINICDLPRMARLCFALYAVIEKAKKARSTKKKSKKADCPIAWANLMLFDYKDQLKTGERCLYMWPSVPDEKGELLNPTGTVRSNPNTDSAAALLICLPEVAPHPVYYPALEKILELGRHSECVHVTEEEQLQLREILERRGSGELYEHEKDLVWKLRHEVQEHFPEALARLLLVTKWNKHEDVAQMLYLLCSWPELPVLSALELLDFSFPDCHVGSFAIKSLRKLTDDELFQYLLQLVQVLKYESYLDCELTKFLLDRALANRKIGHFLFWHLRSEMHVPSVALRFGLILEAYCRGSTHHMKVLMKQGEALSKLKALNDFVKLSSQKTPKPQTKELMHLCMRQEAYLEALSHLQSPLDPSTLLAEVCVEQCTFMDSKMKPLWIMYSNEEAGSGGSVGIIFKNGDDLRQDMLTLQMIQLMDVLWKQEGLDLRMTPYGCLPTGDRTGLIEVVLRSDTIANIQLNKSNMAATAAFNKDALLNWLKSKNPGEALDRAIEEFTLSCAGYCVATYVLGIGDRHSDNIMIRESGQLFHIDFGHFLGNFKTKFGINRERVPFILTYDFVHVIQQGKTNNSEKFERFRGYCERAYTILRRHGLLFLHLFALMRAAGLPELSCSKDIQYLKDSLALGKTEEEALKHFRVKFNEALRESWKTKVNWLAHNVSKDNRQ
Sequence (P27986 whole entry partner): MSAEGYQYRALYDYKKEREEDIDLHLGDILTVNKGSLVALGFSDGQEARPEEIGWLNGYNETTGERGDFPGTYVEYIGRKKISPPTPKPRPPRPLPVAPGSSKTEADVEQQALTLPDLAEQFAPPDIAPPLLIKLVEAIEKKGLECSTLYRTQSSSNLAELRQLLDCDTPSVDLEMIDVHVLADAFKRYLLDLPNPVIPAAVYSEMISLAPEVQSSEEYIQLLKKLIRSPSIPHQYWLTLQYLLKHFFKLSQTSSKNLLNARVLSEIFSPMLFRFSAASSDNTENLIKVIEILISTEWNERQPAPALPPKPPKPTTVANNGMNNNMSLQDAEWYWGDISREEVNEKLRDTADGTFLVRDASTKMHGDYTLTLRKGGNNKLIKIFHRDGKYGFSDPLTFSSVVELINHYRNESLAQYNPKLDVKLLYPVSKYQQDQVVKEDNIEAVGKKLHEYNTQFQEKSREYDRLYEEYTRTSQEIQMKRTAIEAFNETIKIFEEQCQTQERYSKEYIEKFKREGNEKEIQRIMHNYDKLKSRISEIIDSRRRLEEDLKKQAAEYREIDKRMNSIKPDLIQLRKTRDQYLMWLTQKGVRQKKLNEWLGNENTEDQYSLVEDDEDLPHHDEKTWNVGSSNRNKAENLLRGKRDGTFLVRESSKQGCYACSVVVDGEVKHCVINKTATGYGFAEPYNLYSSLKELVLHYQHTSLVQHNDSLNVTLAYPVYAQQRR
test-protocol: Inhibition of phosphatidylinositol 3-kinase delta (PI3K δ), pAkt Western blotting in IgM-stimulated Raji cells
Assay type: cell-based
settings: ATP=10 uM, sample concentration=100 nM
quantity-kind: IC50

Below, each entry is followed by its recorded IC50 result.
{"columns": ["smi", "IC50"],
 "data": [
  ["O=c1nc[nH]c2ncnc(N3CCC[C@H]3c3nc4cccc(Cl)c4c(=O)n3-c3cccnc3)c12", "> 500 nM"],
  ["CN1CNc2ncnc(N3CCC[C@H]3c3nc4cccc(Cl)c4c(=O)n3-c3cccnc3)c2C1=O", "> 500 nM"],
  ["C[C@H](Nc1ncnc2c1C(=O)N(C)CN2)c1cc2cccc(Cl)c2c(=O)n1-c1ccccc1", "< 10 nM"],
  ["Cc1cccc(-n2c([C@H](C)Nc3nc(N)nc4[nH]cnc(=O)c34)nc3cccc(Cl)c3c2=O)c1", "10 to 500 nM"],
  ["Cc1c[nH]c2nc(N)nc(N[C@@H](C)c3cc4cccc(Cl)c4c(=O)n3-c3ccccc3)c2c1=O", "< 10 nM"]
]}

Query: IC50; subject: O=c1cc[nH]c2ncnc(N3CCC[C@H]3c3nc4cccc(Cl)c4c(=O)n3-c3ccccc3)c12
< 10 nM

And what about the compound CC(C)N1CNc2ncnc(N[C@@H](C)c3cc4cccc(Cl)c4c(=O)n3-c3ccccc3)c2C1=O ?
> 500 nM

* * *

tested-on: PI3 Kinase (p120γ) (h) (Homo sapiens)
Construct: endogenous in cells
test-protocol: Inhibition of phosphatidylinositol 3-kinase gamma (PI3K γ), pAkt Western blotting in C5a-stimulated RAW264.7 macrophages
settings: ATP=10 uM, sample concentration=100 nM
quantity-kind: IC50

Below, each entry is followed by its recorded IC50 result.
{"columns": ["compound", "IC50"],
 "data": [
  ["Cc1c[nH]c2nc(N)nc(N[C@@H](C)c3cc4cccc(Cl)c4c(=O)n3-c3ccccc3)c2c1=O [Example 18]", "10 to 500 nM"],
  ["CN1CNc2ncnc(N3CCC[C@H]3c3nc4cccc(Cl)c4c(=O)n3-c3cccc(F)c3)c2C1=O [Example 44]", "10 to 500 nM"],
  ["CC[C@H](Nc1ncnc2[nH]cnc(=O)c12)c1nc2cccc(F)c2c(=O)n1-c1ccccc1 [Example 73]", "> 500 nM"]
]}

Query: IC50; subject: Nc1nc(N2CCC[C@H]2c2cc3cccc(Cl)c3c(=O)n2-c2ccccc2)c2c(=O)cc[nH]c2n1 [Example 16]
10 to 500 nM

And what about the compound CC[C@H](Nc1ncnc2[nH]ccc(=O)c12)c1nc2cccc(F)c2c(=O)n1-c1ccccc1 [Example 12] ?
10 to 500 nM

And what about the compound C[C@H](Nc1ncnc2[nH]cnc(=O)c12)c1nc2cccc(Cl)c2c(=O)n1-c1cccc(F)c1 [Example 68] ?
> 500 nM

And what about the compound Cc1cccc(-n2c([C@H](C)Nc3nc(N)nc4[nH]cnc(=O)c34)nc3cccc(Cl)c3c2=O)c1 [Example 84] ?
10 to 500 nM

And what about the compound CC(C)N1CNc2ncnc(N[C@@H](C)c3cc4cccc(Cl)c4c(=O)n3-c3ccccc3)c2C1=O [Example 64] ?
> 500 nM

* * *

tested-on: PI3 Kinase (p120γ) (h) (Homo sapiens, UniProt P48736)
Construct: endogenous in cells
Sequence (P48736 whole entry): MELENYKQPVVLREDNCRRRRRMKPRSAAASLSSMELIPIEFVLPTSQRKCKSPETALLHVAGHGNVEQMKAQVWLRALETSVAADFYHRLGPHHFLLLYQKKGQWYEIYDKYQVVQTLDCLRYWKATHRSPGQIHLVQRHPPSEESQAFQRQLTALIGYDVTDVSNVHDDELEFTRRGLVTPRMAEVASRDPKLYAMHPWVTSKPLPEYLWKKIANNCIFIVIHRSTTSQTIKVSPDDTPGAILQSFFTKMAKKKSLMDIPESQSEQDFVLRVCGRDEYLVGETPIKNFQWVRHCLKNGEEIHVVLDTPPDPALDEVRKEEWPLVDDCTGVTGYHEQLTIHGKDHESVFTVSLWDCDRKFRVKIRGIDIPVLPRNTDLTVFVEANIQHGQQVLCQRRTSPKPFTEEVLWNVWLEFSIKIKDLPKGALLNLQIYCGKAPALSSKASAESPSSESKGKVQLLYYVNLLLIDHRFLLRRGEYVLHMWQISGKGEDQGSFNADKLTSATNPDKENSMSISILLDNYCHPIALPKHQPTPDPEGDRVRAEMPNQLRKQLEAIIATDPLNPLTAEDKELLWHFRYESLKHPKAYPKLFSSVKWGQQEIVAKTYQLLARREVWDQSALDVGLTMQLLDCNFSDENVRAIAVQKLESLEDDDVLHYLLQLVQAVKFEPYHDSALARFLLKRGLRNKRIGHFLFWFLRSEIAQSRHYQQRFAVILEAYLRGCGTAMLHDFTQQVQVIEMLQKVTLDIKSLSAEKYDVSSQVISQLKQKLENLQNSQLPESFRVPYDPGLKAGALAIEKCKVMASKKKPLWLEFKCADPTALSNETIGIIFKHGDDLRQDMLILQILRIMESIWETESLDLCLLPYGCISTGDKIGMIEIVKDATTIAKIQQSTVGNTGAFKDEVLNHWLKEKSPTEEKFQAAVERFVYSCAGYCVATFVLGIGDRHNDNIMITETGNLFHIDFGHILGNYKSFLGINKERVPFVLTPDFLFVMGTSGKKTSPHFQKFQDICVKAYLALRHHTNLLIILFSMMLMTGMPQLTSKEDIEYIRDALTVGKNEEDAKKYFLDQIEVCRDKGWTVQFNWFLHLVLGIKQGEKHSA
test-protocol: Inhibition of phosphatidylinositol 3-kinase gamma (PI3K γ), pAkt Western blotting in C5a-stimulated RAW264.7 macrophages
settings: ATP=10 uM, sample concentration=100 nM
Procedure: The stimulated cells were transferred in a 1.5 mL tube, followed by centrifugation at 3000 rpm for 1 minute. […] Protein was quantified by BCA (bicinchoninic acid) method and samples were prepared. […] The inhibition of phosphatidylinositol 3 kinase gamma (PI3K γ) by those compounds prepared in Examples 1˜98 was investigated by the following experiment. The inhibition activity of each compound was measured in the following conditions: ATP=10 uM, and sample concentration=100 nM. […]
pIC50: −log10 of the molar value.
quantity-kind: pIC50

Below, each entry is followed by its recorded pIC50 result.
{"columns": ["molecule", "pIC50"],
 "data": [
  ["Cc1c[nH]c2ncnc(N[C@@H](C)c3cc4cccc(Cl)c4c(=O)n3-c3ccccc3)c2c1=O [Example 17]", "6.30 to 8.00"],
  ["C[C@H](Nc1ncnc2c1C(=O)CCN2)c1cc2cccc(Cl)c2c(=O)n1-c1ccccc1 [Example 97]", "6.30 to 8.00"],
  ["Nc1nc(N2CCC[C@H]2c2nc3cccc(Cl)c3c(=O)n2-c2cccc(F)c2)c2c(=O)nc[nH]c2n1 [Example 92]", "< 6.30"],
  ["O=c1nc[nH]c2ncnc(N3CCC[C@H]3c3nn4ccc(Cl)c4c(=O)n3-c3cccc(F)c3)c12 [Example 80]", "< 6.30"],
  ["Nc1nc(N2CCC[C@H]2c2cc3cccc(Cl)c3c(=O)n2-c2ccccc2)c2c(=O)nc[nH]c2n1 [Example 94]", "6.30 to 8.00"],
  ["C[C@H](Nc1nc(N)nc2c1C(=O)N(C)CN2)c1cc2cccc(Cl)c2c(=O)n1-c1ccccc1 [Example 52]", "> 8.00"]
]}

Okay, next one:
Query: pIC50; subject: C[C@H](Nc1nc(N)nc2c1C(=O)N(C)CN2)c1nc2cccc(Cl)c2c(=O)n1-c1ccccc1 [Example 48]
> 8.00

* * *

tested-on: PI3 Kinase (p110δ/p85α) (h) (Homo sapiens)
Construct: endogenous in cells
test-protocol: Inhibition of phosphatidylinositol 3-kinase delta (PI3K δ), pAkt Western blotting in IgM-stimulated Raji cells
settings: ATP=10 uM, sample concentration=100 nM
pIC50: −log10 of the molar value.
Documented pIC50 across a set of compounds

{"columns": ["smi", "tested-on", "value-measured"],
 "data": [
  ["C[C@H](Nc1nc(N)nc2[nH]cnc(=O)c12)c1cc2ccccc2nc1-c1ccccc1", "PI3 Kinase (p110δ/p85α) (h) (Homo sapiens)", "6.30 to 8.00"],
  ["C[C@H](Nc1ncnc2[nH]cnc(=O)c12)c1nc2cccc(Cl)c2c(=O)n1-c1cccnc1", "PI3 Kinase (p110δ/p85α) (h) (Homo sapiens)", "< 6.30"],
  ["Cc1cccc(-n2c([C@H](C)Nc3nc(N)nc4c3C(=O)N(C)CN4)nc3cccc(Cl)c3c2=O)c1", "PI3 Kinase (p110δ/p85α) (h) (Homo sapiens)", "> 8.00"],
  ["C[C@H](Nc1ncnc2c1C(=O)N(C)CN2)c1nc2cccc(Cl)c2c(=O)n1-c1cccc(F)c1", "PI3 Kinase (p110δ/p85α) (h) (Homo sapiens)", "> 8.00"]
]}

Query: pIC50; subject: C[C@H](Nc1ncnc2[nH]cnc(=O)c12)c1cc2ccccc2nc1-c1ccccc1
< 6.30

And what about the compound Cc1cccc(-n2c([C@@H]3CCCN3c3ncnc4[nH]cnc(=O)c34)nc3cccc(Cl)c3c2=O)c1 ?
< 6.30

* * *

tested-on: PI3 Kinase (p120γ) (h) (Homo sapiens, UniProt P48736)
Construct: endogenous in cells
test-protocol: Inhibition of phosphatidylinositol 3-kinase gamma (PI3K γ), pAkt Western blotting in C5a-stimulated RAW264.7 macrophages
settings: ATP=10 uM, sample concentration=100 nM
pIC50: −log10 of the molar value.
Documented pIC50 across a set of compounds

Below, each entry is followed by its recorded pIC50 result.
{"columns": ["compound", "value-measured"],
 "data": [
  ["CN1CNc2nc(N)nc(N3CCC[C@H]3c3nc4cccc(Cl)c4c(=O)n3-c3cccnc3)c2C1=O [Example 56]", "< 6.30"],
  ["C[C@H](Nc1nc(N)nc2[nH]cnc(=O)c12)c1nn2ccc(Cl)c2c(=O)n1-c1ccccc1 [Example 86]", "6.30 to 8.00"],
  ["C[C@H](Nc1ncnc2[nH]ccc(=O)c12)c1nc2cccc(Cl)c2c(=O)n1-c1ccccc1 [Example 1]", "6.30 to 8.00"],
  ["O=c1nc[nH]c2ncnc(N3CCC[C@H]3c3nc4cccc(Cl)c4c(=O)n3-c3ccccc3)c12 [Example 74]", "< 6.30"],
  ["CC(Nc1ncnc2[nH]ccc(=O)c12)c1nc2ccc(F)cc2c(-c2ccccn2)c1-c1ccccn1 (stereo not shown) [Example 26]", "< 6.30"],
  ["C[C@H](Nc1ncnc2[nH]cnc(=O)c12)c1cc2cccc(Cl)c2c(=O)n1-c1ccccc1 [Example 70]", "6.30 to 8.00"],
  ["C[C@H](Nc1ncnc2[nH]cnc(=O)c12)c1nc2cccc(Cl)c2c(=O)n1-c1cccnc1 [Example 67]", "< 6.30"],
  ["CN1CNc2nc(N)nc(N3CCC[C@H]3c3nc4cccc(Cl)c4c(=O)n3-c3cccc(F)c3)c2C1=O [Example 57]", "6.30 to 8.00"]
]}

Query: pIC50; subject: Cc1cccc(-n2c([C@@H]3CCCN3c3nc(N)nc4[nH]cnc(=O)c34)nc3cccc(Cl)c3c2=O)c1 [Example 93]
< 6.30

And what about the compound C[C@H](Nc1ncnc2[nH]cnc(=O)c12)c1nn2ccc(Cl)c2c(=O)n1-c1ccccc1 [Example 71] ?
< 6.30

And what about the compound C[C@H](Nc1ncnc2[nH]cc(C#N)c(=O)c12)c1cc2cccc(Cl)c2c(=O)n1-c1ccccc1 [Example 19] ?
< 6.30

All figures here come from patent US10526337B2.
